- System Name: T1, hCADM3-GST (human)
- T1 construct: also called extracellular domain of human CADM3 to which GST was added at the C-terminal side; human CADM3-GST
- T1 sequence (chain, as listed by the source limits assumed): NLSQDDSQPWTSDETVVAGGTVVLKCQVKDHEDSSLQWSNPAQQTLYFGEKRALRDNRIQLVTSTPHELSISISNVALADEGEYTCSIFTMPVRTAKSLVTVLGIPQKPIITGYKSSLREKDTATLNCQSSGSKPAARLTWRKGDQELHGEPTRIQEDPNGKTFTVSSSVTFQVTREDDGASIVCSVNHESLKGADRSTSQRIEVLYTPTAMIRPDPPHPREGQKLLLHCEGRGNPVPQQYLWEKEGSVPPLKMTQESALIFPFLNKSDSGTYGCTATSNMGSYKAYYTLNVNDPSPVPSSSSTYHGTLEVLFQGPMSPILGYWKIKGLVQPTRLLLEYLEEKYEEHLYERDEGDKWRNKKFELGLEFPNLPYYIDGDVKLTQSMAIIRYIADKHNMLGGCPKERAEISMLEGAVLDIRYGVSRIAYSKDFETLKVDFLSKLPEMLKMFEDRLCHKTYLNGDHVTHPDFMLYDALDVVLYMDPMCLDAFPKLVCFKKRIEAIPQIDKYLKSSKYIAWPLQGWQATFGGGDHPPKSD
- Measurement Protocol: SPR (Biacore T-100), antibody captured, hCADM3-GST as analyte
Measurement Name: binding result

- Binder: "iCADM3_3R1-L5 VHH-hG4PE(R409K) (Fc fusion, VHH-Fc antibody; also called anti-CADM3 VHH-Fc antibody iCADM3_3R1-L5; not shown: Hinge-CH2-CH3 region of the human IgG4 heavy chain constant region (IgG4 variant)) QVQLVESGGGLVQAGGSLRLSCAASGSIVSVNAMGWYRQAPGKQRELVATITSGGSTNYADSAKGRFTISRDNAKNTMYLQMNSLKPEDTAVYYCNGEFWSRRDTRPPGVVNYWGQGTQVTVSS"
  Measurement Name: "binding result"
  Test Result: "binds"
- Binder: "CADM301 scFv-hG4PE (Fc fusion, also called anti-CADM3 scFv-Fc antibody) VH: QVQLVQSGAEVRRPGTSVKVSCKASGYSFTSYDINWVRLATGQGLEWMGWMNPNTGDTGSPQKFQDRVTMTRDISTGTAYLELRGLKSEDTAIYYCARGFLVTAYTAEFFPHWGQGTLVTVSS VL: SYVLTQPPSVSVAPGKTARLTCGGNNIGSKSVHWYQQRPGQAPVLVINYDSDRPSGIPERFSGSNSENTATLTISRVEAGDEADYYCQVWDSGSDHVVFGGGTQLIIL"
  Measurement Name: "binding result"
  Test Result: "binds"
- Binder: "CADM3102 scFv-hG4PE (Fc fusion, also called anti-CADM3 scFv-Fc antibody) VH: QMQLVQSGAEVKKPGSSVKVSCKASGGTFSSYAISWVRQAPGQGLEWMGGIIPMSGTANYAQKFQGRVTITADESTSTAYMELSSLRSEDTAVYYCARVEESGWYDHYHGMDVWGQGTTVTVSS VL: DVVMTQSPLSLPVTPGEPASISCTSSQSLLYSNGFNYLDWYLQKPGQSPQLLIYLGSNRASGVPDRFSGSGSGTDFTLKISRVEAEDVGVYYCMQALTTHPTFGGGTKVDIK"
  Measurement Name: "binding result"
  Test Result: "binds"
